- protocol.summary: mitochondrial membrane potential change in A549 cells, profiling panel, cell-based, JC-1 fluorescence, basal, 24 h, 100 nL (AID 1138);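 also: A549 lung adenocarcinoma cells under basal conditions with no added stimulus; test concentration not given here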
- experimental.setup: higher = more signal
test.readout: z-score
// response body must contain only the number

Example entries and their recorded answers appear below.
compound: CC(C)NC(=O)[C@@]1(C)c2ccccc2C(=O)N(Cc2cc(C(F)(F)F)cc(C(F)(F)F)c2)[C@H]1c1ccc(CO)cc1
z-score: 1.21
--
compound: COC(=O)[C@@]1(Cc2ccc(OC)cc2)[C@@H]2C(=CC(=O)[C@H]2CC(=O)C(=O)N2CCCC2)CN1C(=O)c1ccccc1
z-score: 1.55

Asked: Request the reported z-score associated with CC(C)CNC(=O)[C@@]1(Cc2ccccc2I)c2ccccc2C(=O)N(C2CCCCC2)[C@H]1c1ccc(CO)cc1
Given back: 1.57

Asked: Queued: C=CCC(OC(C)=O)[C@@H]1[C@@H](N(Cc2ccc(-c3cccc(C(F)(F)F)c3)o2)C(=O)c2ccc(C)cc2)c2cc(OCCCO)ccc2N1C(=O)Cc1ccc2ccccc2c1 (some centres not stated)
Given back: 0.71

Asked: Can you check NC(=O)N1C(=O)C2C(C1=O)C1C=C(c3ccc(CO)cc3)C2C(c2cccs2)N1Cc1cccc(OC(F)(F)F)c1 (configuration not stated) next?
Given back: 1.22

Asked: Now consider O=C1N[C@@H](Cc2ccccc2)C(=O)N2[C@@H]1C[C@@H](C(=O)O)[C@H]2c1cccc(OCCO)c1 and answer again.
Given back: 0.849

Asked: # iterate: COC(=O)C(CC#Cc1ccc2c(c1)[C@]1(C(=O)N2)[C@H](c2ccc(OCCO)cc2)N2[C@H](c3ccccc3)[C@H](c3ccccc3)OC(=O)[C@H]2[C@@H]1C(=O)Nc1nc2ccccc2s1)C(=O)OC
Given back: -2.05

---

- protocol.summary: fission yeast growth modulation, primary screen, strain 972, OD600, 24 h, no modulator (AID 1090);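 also: basal condition with compound alone and no growth modifier present; test concentration not given here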
- experimental.setup: S. pombe 972 growth, higher = more signal, called active from +8 up or from −8 down
test.readout: z-score
Please state the value as a number alone, without comment.

Below, 3 molecules whose answers are already recorded.
molecule: C=C(COC)C(=O)CC[C@@H](OC(C)=O)c1ccc(CO)o1
readout.number: -0.198
--
molecule: COc1cc(Br)cc(C(O)C2C=CC3C(=O)N(C)C(=O)C3N2N2CCCCC2)c1OC (centres undefined)
readout.number: 1.13
--
molecule: CC1CC/C=C\[C@H]2OC34C=CCN(C(C)(C)C)C(=O)[C@H]3N(CCO)C(=O)[C@@H]4C2C(=O)O1 (some centres undefined)
readout.number: -0.905

Asked: Give its z-score value. Item: CN(C)CCCCCCNC(=O)[C@H]1C[C@H]2C(=O)N[C@@H](CCCCN)C(=O)N2[C@H]1c1cccc(OCCO)c1
Given back: -9.2

Asked: Proceed to C=CCN1C(=O)[C@]2(O[C@H](CCn3cc([C@H](O)c4ccccc4)nn3)[C@@H]([Si](C)(C)c3ccc(OC)cc3)[C@@H]2C)c2ccccc21
Given back: 0.0123

---

- protocol.summary: MM1S myeloma cell viability, profiling panel, resazurin fluorescence, basal, 24 h, PK04 Diversity Set (AID 1174);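 also: MM1S multiple myeloma cell line; test concentration not given here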
- experimental.setup: higher = more signal, called active from +8 up or from −8 down
Tag: MET if measured z-score is not below -0.5, NOT MET if it is.

mol.smiles: O=C1N(Cc2ccccc2)c2ccccc2[C@@H]2OC(c3ccc(OCCCO)cc3)=N[C@]12CCS(=O)(=O)c1ccccc1
class.label: MET

Asked: Is z-score for COC(=O)[C@@]1(Cc2ccc(F)cc2)[C@H]2c3cc(C(=O)N(C)C)n(Cc4cc(F)c(F)c(F)c4)c3C[C@H]2CN1C(=O)c1ccccc1 at or above -0.5?
Given back: NOT MET

Asked: Try this compound too: CC(C)C(=C=CC[C@H](O)c1ccc(OCCO)cc1)CCO
Given back: NOT MET

Asked: Next compound: CN(C)CCCC[C@@H]1NC(=O)[C@H]2C[C@@H](C(=O)NCCCCCCN)[C@@H](c3ccc(O)cc3)N2C1=O
Given back: MET

Asked: Entry to check: O=C(CS)NCCCCCCNC(=O)[C@@H]1C[C@@H]2C(=O)N[C@@H](Cc3ccccc3)C(=O)N2[C@@H]1c1cccc(OCCO)c1
Given back: MET
